Tested on: RARa:RXR (NR concentration 270 nM, RXRa partner concentration 90 nM)
Experiment: PBM binding z-score (relative to random genomic background probes); higher = stronger binding; sequences stand for … in GC…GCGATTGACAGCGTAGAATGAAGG
Observable: PBM binding z-score
Number only, please.

Completed entries (count: 3):
1) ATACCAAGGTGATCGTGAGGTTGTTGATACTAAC    0.978
2) TGGCAAAGTTCAAAGGTAACGTAAGTATCCACAC    6.87
3) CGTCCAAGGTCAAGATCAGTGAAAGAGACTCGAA    3.99

Looking up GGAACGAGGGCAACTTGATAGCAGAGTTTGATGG , I see its PBM binding z-score listed as 0.629

Quick note, PBM binding z-score for TAGTCTAGGTCATTGGGCCAGTATAGTACGCATC landed at 2.72

Briefly, PBM binding z-score measured for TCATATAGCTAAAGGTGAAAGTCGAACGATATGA : 1.51
